Recorded IC50 values (LSD1 (Homo sapiens (Human))) are given below.

Query string: What is its IC50 for LSD1 (Homo sapiens (Human))? Entry: "CC(C)n1nnc2cc(-c3c(-c4ccc(C#N)cc4)cc(OC[C@@H]4CCCN(C)C4)c4cncn34)cnc21"
Result string: 100 to 500 nM

Query string: What is its IC50 for LSD1 (Homo sapiens (Human))? Entry: "CN1CCC[C@@H](COc2cc(-c3ccc(C#N)cc3)c(-c3ccc4c(c3)CN(C)C4=O)n3cncc23)C1"
Result string: 100 to 500 nM

Query string: What is its IC50 for LSD1 (Homo sapiens (Human))? Entry: "N#Cc1ccc(-c2cc(OC[C@@H]3CCNC3)c3cncn3c2-c2ccc(Cl)cc2)cc1"
Result string: 50 to 100 nM

Query string: What is its IC50 for LSD1 (Homo sapiens (Human))? Entry: "N#Cc1ccc(-c2cc(OC[C@@H]3CCNC3)c3cncn3c2-c2ccc(CN3CCOCC3)cc2)cc1"
Result string: 50 to 100 nM

Query string: What is its IC50 for LSD1 (Homo sapiens (Human))? Entry: "CNC(=O)c1ccc(-c2c(-c3ccc(C#N)cc3)cc(OC[C@@H]3CCCN(C)C3)c3cncn23)cn1"
Result string: 50 to 100 nM

Query string: What is its IC50 for LSD1 (Homo sapiens (Human))? Entry: "CN1CCC[C@@H](COc2nc(-c3ccc(C#N)cc3)c(-c3ccc4c(c3)oc(=O)n4C)n3cncc23)C1"
Result string: 50 to 100 nM

Query string: What is its IC50 for LSD1 (Homo sapiens (Human))? Entry: "CN1CCC[C@@H](COc2nc(-c3ccc(C#N)cc3)c(-c3ccc4ncccc4c3)n3cncc23)C1"
Result string: 50 to 100 nM

Query string: What is its IC50 for LSD1 (Homo sapiens (Human))? Entry: "CN1CCC[C@@H](COc2cc(-c3ccc(C#N)cc3)c(-c3cnc4c(c3)OCC(=O)N4C)n3cncc23)C1"
Result string: 50 to 100 nM

Query string: What is its IC50 for LSD1 (Homo sapiens (Human))? Entry: "COCc1cc(-c2c(-c3ccc(C#N)cc3)cc(OC[C@@H]3CCCN(C)C3)c3cncn23)cnc1C"
Result string: 50 to 100 nM

Query string: What is its IC50 for LSD1 (Homo sapiens (Human))? Entry: "Cc1nn(C)c2ccc(-c3c(-c4ccc(C#N)cc4)nc(OC[C@@H]4CCCN(C)C4)c4cncn34)cc12"
Result string: 50 to 100 nM

Query string: What is its IC50 for LSD1 (Homo sapiens (Human))? Entry: "CCN1CCC[C@@H](COc2nc(-c3ccc(C#N)cc3)c(-c3ccc4c(c3)CC(=O)N4C)n3cncc23)C1"
Result string: 50 to 100 nM

Query string: What is its IC50 for LSD1 (Homo sapiens (Human))? Entry: CC(O)CN1CCC[C@@H](COc2cc(-c3ccc(C#N)cc3)c(-c3cnc4c(c3)OCCO4)n3cncc23)C1 (stereo partly drawn)
Result string: 50 to 100 nM

----------
Recorded IC50 values (LSD1 (Homo sapiens (Human), UniProt O60341)) are given below.

Query string: What is its IC50 for LSD1 (Homo sapiens (Human), UniProt O60341)? Entry: CC(O)c1c(F)cc(-c2c(-c3ccc(C#N)cc3)cc(OC[C@@H]3CCCN(C)C3)c3cncn23)cc1F (stereo partly shown)
Result string: 50 to 100 nM

Query string: What is its IC50 for LSD1 (Homo sapiens (Human), UniProt O60341)? Entry: "CN1CCC[C@@H](COc2cc(-c3ccc(C#N)cc3)c(-c3cnc4c(c3)nnn4C3CC3)n3cncc23)C1"
Result string: 100 to 500 nM

Query string: What is its IC50 for LSD1 (Homo sapiens (Human), UniProt O60341)? Entry: "CN1CCC[C@@H](COc2cc(-c3ccc(C#N)cc3)c(-c3ccc(C(C)(C)C#N)nc3)n3cncc23)C1"
Result string: 50 to 100 nM

Query string: What is its IC50 for LSD1 (Homo sapiens (Human), UniProt O60341)? Entry: "CCN1CCC[C@@H](COc2cc(-c3ccc(C#N)cc3)c(-c3cnc4c(c3)ncn4C)n3cncc23)C1"
Result string: 50 to 100 nM
